method: HEK293 24hr Apoptosis Induction qHTS against the NCATS CANVASS Library (AID 1347359); as to activation: 0% is about no effect
test_context: HEK293 caspase-3/7 activation, Caspase-Glo luminescence; series mostly up to 46.1 µM
Inconclusive results are not listed. Activity calls are given as the source filed them. Calls follow the shape of the dose curve; as a rule, active = well fitted activation curve with a large enough effect; inconclusive = small, poorly fitted or top-dose-only effect; inactive = flat fitted curve, though single readings scatter.
Could you please pick one outcome from this set? true (1) (active), false (0) (inactive)

C=C1C(=O)O[C@H]2C[C@H](C)[C@@H]3CC(=O)C(C)=C3[C@H](O)[C@H]12	false (0)
CC1=CC[C@@]2(C[C@@H]1O)[C@@H](C(=O)O)CC[C@H]2C(C)C	false (0)
CN1C(=O)[C@]23SS[C@@]1(C)C(=O)N2[C@H]1Nc2ccccc2[C@]1(c1c[nH]c2ccccc12)[C@@H]3O	true (1)
COc1ccc(CCCc2cc(O)c(OC)c(O)c2)c(O)c1O	false (0)

Q: // outcome(item) with item = CN1C(=O)C2C(N=CN2C)N(C)C1=O (stereo not given)
Ans: false (0)

----------
study_system: Furin (Homo sapiens)
method: Furin counterscreen qHTS for Zika virus inhibitors (AID 1347149); also: nearly all actives have a fitted effect of over 70% in size
test_context: furin enzymatic counterscreen, fluorogenic substrate; series mostly up to 114 µM
Results filed as inconclusive are left out. Active and inactive are the calls of the source. The call rests on the fitted dose curve; in most records, active means well fitted inhibition curve with a large enough effect; inconclusive means small, poorly fitted or top-dose-only effect; inactive means no such curve, though single readings can be large or run the other way.
Could you please pick one outcome from this set? active, inactive

A selection of reference data follows.
O=C(CSc1nnc(-c2cccc([S+](=O)([O-])NC3CCCC3)c2)n1-c1ccc(F)cc1)Nc1ccc(C(=O)O)cc1	inactive
O=C(O)COc1ccc(-c2nccc3c2C(=O)N(Cc2cccc(C(F)(F)F)c2)CC(COc2ccc(OC(F)(F)F)cc2)O3)cc1 (configuration not stated)	active
O=C(CNC(=O)c1ccccc1)OC(C(=O)Nc1cc(C(F)(F)F)ccc1Cl)c1ccccc1 (configuration not stated)	inactive

Q: // outcome(item) with item = `O=C(OCC#CCSc1nnc(-c2cccc3ccccc23)o1)c1cc(F)c(F)c(F)c1`
Ans: active

Q: // outcome(item) with item = `O=C(O)c1c(-c2ccccc2)oc2ccc(OCc3ccc(Cl)c(Cl)c3)cc12`
Ans: active

Q: // outcome(item) with item = `CCOC(=O)c1ccc(NC(=O)c2ccc3c(c2)CCN3S(=O)(=O)c2ccc(Cl)cc2)cc1`
Ans: inactive

Q: // outcome(item) with item = CC(=O)N1c2ccc(-c3ccc(C(=O)O)cc3)cc2C(Nc2ccc(Cl)cc2)CC1C (configuration not stated)
Ans: inactive

Q: // outcome(item) with item = `O=C(Nc1cccc(C(=O)OCc2cc(=O)n3nc(C4CC4)sc3n2)c1)c1cccc(F)c1`
Ans: active

----------
study_system: Cytochrome P450 1A2 (Homo sapiens)
method: p450-cyp1a2 (AID 410)
test_context: recombinant CYP1A2, luciferin-ME demethylation, luminescence; series mostly up to 57 µM
Results filed as inconclusive are left out. Activity calls are given as the source filed them. Calls come from the whole dose curve.
Could you please pick one outcome from this set? T = active, F = inactive

C[C@@]12C(=O)OC(=O)[C@@]1(C)[C@@H]1CC[C@@H]2O1	T
CCCCCCCCCCCCCCCC(=O)C(F)(F)F	T
N[C@H](CCC(=O)NCC(=O)O)C(=O)O	F
Clc1ccccc1CNCC1CCC(CNCc2ccccc2Cl)CC1 (stereo unspecified)	F
CC(=O)N1CCN(C)CC1	T
C=CCN1CCc2cc(O)c(O)cc2[C@H](c2ccccc2)C1	F
C[C@H]1C=C2C=C[C@H](C)[C@H](CC[C@@H]3C[C@@H](O)CC(=O)O3)[C@H]2[C@@H](OC(=O)[C@@H](C)CCO)C1	T
O=C1C(c2ccccn2)=[N+]([O-])c2ccccc21	T
NS(=O)(=O)c1cccc2c1c([N+](=O)[O-])cc1[nH]c(=O)c(=O)[nH]c12	F
CSc1nc(NC2CCCC2)c([N+](=O)[O-])c(NC2CCCC2)n1	T

Q: // outcome(item) with item = `C[N+](C)(C)CCC(=O)c1cccc2ccccc12`
Ans: T

----------
method: Primary qHTS for inhibitors of nuclear receptor binding SET domain protein 2 (NSD2) in an isogenic RCH-ACV NSD2 p.E1099K mutant (9B) (AID 1645876); also: nearly all actives have a fitted effect of over 70% in size; also: potency is read from the fitted curve at half-maximal effect
test_context: RCH-ACV (leukaemia line) NSD2 E1099K (9B) viability, CellTiter-Glo, 72 h; series mostly up to 44.9 µM
Results filed as inconclusive are left out. Active and inactive are the calls of the source. Calls follow the shape of the dose curve; as a rule, active = well fitted inhibition curve with a large enough effect; inconclusive = small, poorly fitted or top-dose-only effect; inactive = flat fitted curve, though single readings scatter.
measurement_label: Potency

CN(C)C(=O)c1cc2cnc(Nc3ccc(N4CCNCC4)cn3)nc2n1C1CCCC1	4.09 µM (active)
O=C(NOCCO)c1cc(CN2OCCCC2=O)c(F)c(F)c1Nc1ccc(I)cc1F	inactive
CC(Sc1nc2c(cnn2-c2cccc(Cl)c2)c(=O)[nH]1)C(N)=O (configuration not stated)	inactive
COc1cc(/C=C\c2ccc(O)cc2)cc(OC)c1	6.51 µM (active)
Cc1[nH]c(/C=C2\C(=O)Nc3ccccc32)c(C)c1CCC(=O)O	inactive

Each compound below has a recorded value; state its Potency.
1. CNS(=O)(=O)c1ccc2c(c1)/C(=C/c1[nH]c3c(c1CCCN1CCN(C)CC1)CCCC3)C(=O)N2
2. S=c1ssc2c1CCC2

Ans:
["inactive", "inactive"]

Each compound below has a recorded value; state its Potency.
1. COc1cc(OC)c(/C=C2\C(=O)Nc3ccccc32)c(OC)c1
2. C[C@]1(C(=O)Nc2ccc(F)nc2)CCCN1c1nc(Nc2cc(C3CC3)[nH]n2)c2cccn2n1
3. COc1ccc(S(=O)(=O)N(CCO)c2ccccc2CN(C)C/C=C/c2ccc(Cl)cc2)cc1

Ans:
["1.03 µM (active)", "1.84 µM (active)", "7.42 µM (active)"]

----------
method: NFAT Signaling Pathway (AID 444);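 also: carbachol stimulus at about its EC50 of 1 µM final; % is scaled to controls: 0 for no effect and ±100 for the full control effect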
test_context: Jurkat NFAT-bla M1, carbachol, beta-lactamase ratio, 5 h; at 7.69 µM (top of the series)
Inconclusive results are not listed.
Please respond with reported activity change, negative = inhibition for every item in the list.
Numbers only, in %.

Some solved cases for reference:
COC(=O)[C@@H]1[C@@H]2C[C@H]3c4[nH]c5ccccc5c4CCN3C[C@@H]2CC[C@@H]1O	-0.996
c1csc(CNc2ncnc3ccc(-c4ccc5c(c4)OCO5)cc23)c1	5.05
CN(C)C/C=C(\c1ccc(Br)cc1)c1cccnc1	-7.27
O=C(O)c1c(Br)c(Br)c(Br)c(Br)c1C1c2ccc(O)cc2Oc2cc(O)ccc21	-6.47
NCCC[C@@H](N)C(=O)O	-0.481

Now turn to the next compound.
The compound identified as `C[C@@H](C[C@H](N)C(=O)O)C(=O)O` registered its activity change, negative = inhibition at 21.8

----------
System: PA-1
method: Primary qHTS to identify gynecologic anti-cancer compounds using libraries of approved drugs and bioactive compounds (AID 1345084); also: nearly all actives have a fitted effect of over 55% in size
test_context: Gynecologic cancer cell panel viability, ATPlite luminescence, 48 h; series mostly up to 57.5 µM
Records with an inconclusive call do not appear. Active and inactive are the calls of the source. Calls come from the whole dose curve; as a rule, active = well fitted cell-killing curve with a large enough effect; inconclusive = small, poorly fitted or top-dose-only effect, or effect the other way; inactive = flat fitted curve, though single readings scatter.
Could you please pick one outcome from this set? active, inactive

A selection of reference data follows.
CN(CCCNC(=O)c1ccc2nc3c(c(Cl)c2c1)CCCC3)Cc1ccccc1	inactive
COc1ccc2c(c1)CN(C(=O)CCN1CCC(Cc3ccccc3)CC1)CCS2	inactive
C=C(C)C(=O)O[C@H]1[C@H]2C(=C)C(=O)O[C@@H]2C[C@@H](C)/C=C\C(=O)[C@](C)(O)[C@@H]1OC(C)=O	active
CN1CCN(C(=O)c2ccc(Nc3nccc(-c4cccs4)n3)cc2Cl)CC1	inactive

Now, please, on to the next compound.
Q: // outcome(item) with item = CCOc1ccc(-c2nc(-c3cccc4c3CCC4NCCO)no2)cc1OCC (stereo not given)
Ans: inactive

----------
method: Primary qHTS for small molecule stabilizers of the endoplasmic reticulum resident proteome: Secreted ER Calcium Modulated Protein (SERCaMP) assay (AID 1508630); also: % is scaled to controls: 0 for no effect and ±100 for the full control effect
test_context: SH-SY5Y GLuc-SERCaMP (Gaussia luciferase released on ER calcium loss) secretion, thapsigargin, luminescence; series mostly up to 38.4 µM
Results filed as inconclusive are left out. Activity calls are given as the source filed them. Calls follow the shape of the dose curve; as a rule, active = well fitted inhibition curve with a large enough effect; inconclusive = small, poorly fitted or top-dose-only effect; inactive = no such curve, though single readings can be large or run the other way.
measurement_label: activity change, negative = inhibition

CCCCCCCCCCCCC/C=C/[C@@H](O)[C@H](CO)NC(=O)CCCCCCCCCCCCCCC	-18.7% [at 3.88 µM] (inactive)
CC1(C)CC(=O)C([C@H]2C3=C(CC(C)(C)CC3=O)Oc3ccccc32)C(=O)C1	inactive
CCCCC/C=C\C\C=C/C=C/C=C/[C@@H](SC[C@H](NC(=O)CC[C@H](N)C(=O)O)C(=O)NCC(=O)O)[C@@H](O)CCCC(=O)O	-14.5% [at 0.478 µM] (inactive)
COc1cccc(CNc2ccc3nc(-c4ccc(N)cc4)c(OC)n3n2)c1	inactive

----------
Tested on: Tov-21-G
method: Primary qHTS to identify gynecologic anti-cancer compounds using libraries of approved drugs and bioactive compounds (AID 1345084); also: nearly all actives have a fitted effect of over 55% in size
test_context: Gynecologic cancer cell panel viability, ATPlite luminescence, 48 h; series mostly up to 57.5 µM
Records with an inconclusive call do not appear. Active and inactive are the calls of the source. Calls come from the whole dose curve; as a rule, active = well fitted cell-killing curve with a large enough effect; inconclusive = small, poorly fitted or top-dose-only effect, or effect the other way; inactive = flat fitted curve, though single readings scatter.
Could you please pick one outcome from this set? active, inactive

C[N+]1(C)[C@@H]2CC[C@H]1CC(OC(=O)C(O)c1ccccc1)C2 (some centres undefined)	inactive

Q: // outcome(item) with item = CC(C)c1ccc(NC(=O)C(c2ccccc2)N(C)C(=O)Cc2c[nH]c3ccccc23)cc1 (centres undefined)
Ans: inactive

Q: // outcome(item) with item = `COc1ccc2c(c1)CN(C(=O)CCN1CCC(Cc3ccccc3)CC1)CCS2`
Ans: inactive
